Every entry's value here was drawn from patent US20160122421A1.

Examples of binders with documented Kd follow.
# subjectOfTest: T1, 383 amino acid recombinant tau (UniProt P10636-6 1-383, biotinylated where printed as biotin-rTau383 (position not given))
# T1 construct: also called rTau383
# protocolText: Octet

binder | Kd
humanized IPN002 variant VH2/Vk2 (antibody, V domains shown) VH: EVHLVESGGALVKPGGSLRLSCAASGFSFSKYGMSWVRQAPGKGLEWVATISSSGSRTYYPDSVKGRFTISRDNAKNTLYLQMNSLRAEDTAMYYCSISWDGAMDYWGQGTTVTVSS VL: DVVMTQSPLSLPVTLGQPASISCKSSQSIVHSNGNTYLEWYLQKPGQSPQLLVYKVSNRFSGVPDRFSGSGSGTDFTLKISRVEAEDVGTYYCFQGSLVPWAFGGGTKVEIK | 0.232 nM
VH4/Vk1 (antibody, V domains shown, member of the group m7; also called humanized IPN002 variant VH4/Vk1) VH: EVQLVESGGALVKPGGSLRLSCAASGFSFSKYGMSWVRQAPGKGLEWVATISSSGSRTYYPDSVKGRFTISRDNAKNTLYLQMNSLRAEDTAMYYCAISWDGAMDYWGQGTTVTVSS VL: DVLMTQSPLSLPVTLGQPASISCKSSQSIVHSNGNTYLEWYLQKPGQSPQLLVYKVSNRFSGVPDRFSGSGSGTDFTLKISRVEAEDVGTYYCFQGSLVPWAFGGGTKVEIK | 2.12 nM
VH3/Vk3 (antibody, V domains shown, member of the group m7; also called humanized IPN002 variant VH3/Vk3) VH: EVQLVESGGALVKPGGSLRLSCAASGFSFSKYGMSWVRQAPGKGLEWVATISSSGSRTYYPDSVKGRFTISRDNAKNTLYLQMNSLRAEDTAMYYCSISWDGAMDYWGQGTTVTVSS VL: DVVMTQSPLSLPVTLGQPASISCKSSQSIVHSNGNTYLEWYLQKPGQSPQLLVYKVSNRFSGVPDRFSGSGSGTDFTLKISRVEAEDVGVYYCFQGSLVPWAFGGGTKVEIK | 0.169 nM
